B1: Intersectin-2, residues 1129 to 1183; numbered along this chain, Q9NZM3 (parent)
chain: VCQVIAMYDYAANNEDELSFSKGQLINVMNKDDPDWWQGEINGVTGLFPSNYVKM

- Variants of: B1
- Assay method text: abundance fitness (aPCA) (normalised: wild type 0, dead -1); higher = more abundant; growth selection in yeast, the domain comes from the species named
- Condition: Homo sapiens
Rule: fulfilled for abundance fitness not less than -0.07, not fulfilled for anything less.

Entry A12V : is its abundance fitness no less than -0.07?
not fulfilled

Entry I5R : is its abundance fitness no less than -0.07?
not fulfilled

Entry K31E : is its abundance fitness no less than -0.07?
fulfilled

Entry V4A : is its abundance fitness no less than -0.07?
fulfilled

Entry M55G : is its abundance fitness no less than -0.07?
not fulfilled

Entry G23M : is its abundance fitness no less than -0.07?
not fulfilled

Entry N51I : is its abundance fitness no less than -0.07?
not fulfilled

Entry G23V : is its abundance fitness no less than -0.07?
not fulfilled

Entry D16H : is its abundance fitness no less than -0.07?
not fulfilled

Entry V53W : is its abundance fitness no less than -0.07?
not fulfilled

Entry S21P : is its abundance fitness no less than -0.07?
fulfilled

Entry D32A : is its abundance fitness no less than -0.07?
fulfilled

Entry K31F : is its abundance fitness no less than -0.07?
fulfilled

Entry S21M : is its abundance fitness no less than -0.07?
fulfilled

Entry L25K : is its abundance fitness no less than -0.07?
fulfilled

Entry D16T : is its abundance fitness no less than -0.07?
not fulfilled

Entry M29W : is its abundance fitness no less than -0.07?
fulfilled

Entry P49E : is its abundance fitness no less than -0.07?
not fulfilled

Entry N42S : is its abundance fitness no less than -0.07?
fulfilled

Entry M55V : is its abundance fitness no less than -0.07?
not fulfilled

Entry D35Y : is its abundance fitness no less than -0.07?
not fulfilled

Entry L18C : is its abundance fitness no less than -0.07?
not fulfilled

Entry G43M : is its abundance fitness no less than -0.07?
not fulfilled

Entry Q24W : is its abundance fitness no less than -0.07?
fulfilled

Entry G46D : is its abundance fitness no less than -0.07?
not fulfilled

Entry A12H : is its abundance fitness no less than -0.07?
not fulfilled

Entry Y52N : is its abundance fitness no less than -0.07?
not fulfilled

Entry I26G : is its abundance fitness no less than -0.07?
not fulfilled

Entry N13L : is its abundance fitness no less than -0.07?
fulfilled

Entry W37R : is its abundance fitness no less than -0.07?
not fulfilled

Entry K22D : is its abundance fitness no less than -0.07?
not fulfilled

Entry M7Q : is its abundance fitness no less than -0.07?
fulfilled

Entry V44C : is its abundance fitness no less than -0.07?
fulfilled

Entry V1K : is its abundance fitness no less than -0.07?
fulfilled

Entry A11C : is its abundance fitness no less than -0.07?
fulfilled

Entry W36L : is its abundance fitness no less than -0.07?
fulfilled

Entry D32Y : is its abundance fitness no less than -0.07?
not fulfilled

Entry E40H : is its abundance fitness no less than -0.07?
not fulfilled

Entry G43S : is its abundance fitness no less than -0.07?
fulfilled

Entry K54D : is its abundance fitness no less than -0.07?
fulfilled

Entry G39I : is its abundance fitness no less than -0.07?
not fulfilled

Entry I41E : is its abundance fitness no less than -0.07?
not fulfilled

Entry Q3D : is its abundance fitness no less than -0.07?
not fulfilled

Entry G43H : is its abundance fitness no less than -0.07?
fulfilled

Entry I5T : is its abundance fitness no less than -0.07?
fulfilled

The reported numbers originate from the Human Domainome abundance scans (Beltran et al. 2025).
